Origin of the recorded values: patent US8058243B2

# System: murine neural precursor cells (neurosphere cultures)
# TEST_METHOD_NOTES: HTS of LOPAC library against secondary neurosphere cultures, MTT proliferation assay at 3 μM, day 7 (z score, P value)
# Assay type: cell-based, mouse
# PROTOCOL_CONDITIONS: LOPAC primary screen, neurosphere MTT proliferation, 3 μM, day 7
Counter-ions that a name gives are not always drawn.
# binarize Z score: threshold -0.4 inclusive, high side Fulfilled, low side Not fulfilled

The following compounds have reported results that may help.
| COMPOUND | LABEL_CLASS |
| --- | --- |
| CCN1CCC[C@H]1CNC(=O)c1c(O)c(Cl)cc(Cl)c1OC.O=C(O)C(O)C(O)C(=O)O (racemic) [S(+)-Raclopride L-tartrate] | Fulfilled |
| Clc1cnc(Oc2ccc(Oc3ncc(Cl)cc3Cl)cc2)c(Cl)c1 | Not fulfilled |
| CNCC(O)c1ccc(O)cc1 (racemic) [(±)-Synephrine] | Fulfilled |
| CCCN1CCC[C@@H]2Cc3nc(N)ncc3C[C@H]21 [Quinelorane dihydrochloride] | Not fulfilled |
| CCN1CCCC1CNC(=O)c1cc(S(N)(=O)=O)ccc1OC (racemic) [(±)-sulpride, reference compound] | Fulfilled |

Please check the record C[C@](N)(CCP(=O)(O)O)C(=O)O.Cl [(S)-MAP4 hydrochloride] and state if its Z score is at or above -0.4. Not fulfilled

Please check the record NNc1nncc2ccccc12 [Hydralazine hydrochloride] and state if its Z score is at or above -0.4. Fulfilled

Please check the record Cl.NC(N)=NCCNS(=O)(=O)c1cccc2cnccc12 [HA-1004 hydrochloride] and state if its Z score is at or above -0.4. Fulfilled

Please check the record Br.CCCN(CCC)[C@@H]1CCc2ccc(O)cc2C1 [R-(+)-7-Hydroxy-DPAT hydrobromide] and state if its Z score is at or above -0.4. Not fulfilled

Please check the record `N[C@H](CCC(=O)NCS(=O)(=O)O)C(=O)O` and state if its Z score is at or above -0.4. Fulfilled

Please check the record `CC(C)C(=O)c1c(C(C)C)nn2ccccc12` and state if its Z score is at or above -0.4. Fulfilled

Please check the record COc1ccc(C(=O)NCc2cccnc2)cc1C(=O)NCc1cccnc1 [Picotamide] and state if its Z score is at or above -0.4. Fulfilled

Please check the record CCN(CC)CCNC(=O)c1ccc(NC(C)=O)cc1.Cl [N-Acetylprocainamide hydrochloride] and state if its Z score is at or above -0.4. Not fulfilled

Please check the record Clc1ccc(C(c2ccccc2Cl)C(Cl)Cl)cc1 (centres unmarked) and state if its Z score is at or above -0.4. Not fulfilled

Please check the record CCOC(=O)Nc1ccc(NCc2ccc(F)cc2)nc1N [Flupirtine maleate] and state if its Z score is at or above -0.4. Not fulfilled

Please check the record CN(C(=O)Cc1ccc(Cl)c(Cl)c1)C(CN1CCCC1)c1cccc(OCC(=O)O)c1.Cl (centres unmarked) [ICI 204,448 hydrochloride] and state if its Z score is at or above -0.4. Fulfilled

Please check the record `Cl.O=C(OC1CCN(CCCl)CC1)C(c1ccccc1)c1ccccc1` and state if its Z score is at or above -0.4. Fulfilled

Please check the record C[C@]12CCC(=O)C=C1CC[C@@H]1[C@@H]2[C@@H](O)C[C@@]2(C)[C@H]1CC[C@]2(O)C(=O)CO [Hydrocortisone] and state if its Z score is at or above -0.4. Not fulfilled

Please check the record Cl.Fc1ccc(CN(C2=NCCN2)c2c(Cl)cccc2Cl)cc1 [IMID-4F hydrochloride] and state if its Z score is at or above -0.4. Not fulfilled

Please check the record `CCCOC(=O)c1c(-c2ccccc2)nc(CC)c(C(=O)SCC)c1CCC` and state if its Z score is at or above -0.4. Fulfilled

Please check the record CC#CCOC(=O)c1c(C)nc2sc3c(c2c1N)CCC(O)C3 (centres unmarked) and state if its Z score is at or above -0.4. Fulfilled

Please check the record CCSC(N)=Nc1ccc(C(F)(F)F)cc1.Cl [TFPI hydrochloride] and state if its Z score is at or above -0.4. Not fulfilled

Please check the record CCn1ccnc1CC1COc2ccccc2O1 (centres unmarked) [Imiloxan hydrochloride] and state if its Z score is at or above -0.4. Not fulfilled

Please check the record Cl.N=C(N)NC(=O)Cc1c(Cl)cccc1Cl [Guranfacine hydrochloride] and state if its Z score is at or above -0.4. Fulfilled

Please check the record Cc1oncc1C(=O)Nc1ccc(C(F)(F)F)cc1 [Leflunomide] and state if its Z score is at or above -0.4. Fulfilled

Please check the record `NC(=O)COc1c(F)cc(SCCNS(=O)(=O)c2ccccc2)cc1F` and state if its Z score is at or above -0.4. Not fulfilled
